Listing: P/N for acute sera (mean) of selected sequences
Tested on: anti-HAV-positive sera
Assay: EIA for anti-HAV: synthetic peptides adsorbed to wells, reacted with anti-HAV-positive acute sera
Assay type: binding, human
Conditions: experiment 1; OD493 positive/negative ratio of reactive sera
Description: All anti-HAV-positive and anti-HAV-negative sera were randomly selected from a collection reposited at the Centers for Disease Control and Prevention, Atlanta, Ga. Serum specimens were collected from anti-HAV-positive patients with acute liver disease. Anti-HAV-negative serum specimens were collected from normal blood donors. All sera were initially tested by commercially available kit for the presence of anti-HAV activity (HAVAB and HAVAB-M, Abbott Laboratories, Abbott Park, Ill.) […]

BIOSEQUENCE: KNPHNDMLNVNLAKTNDAIK [YK-1363]
MEASURED TARGET: anti-HAV-positive sera
P/N for acute sera (mean): 5.96
//
BIOSEQUENCE: VKEAIDRRLHFKVEVKPASF [YK-1361]
MEASURED TARGET: anti-HAV-positive sera
P/N for acute sera (mean): 4.12
//
BIOSEQUENCE: SEKTIWSLIAWQRSNAEFEQ [YK-1434]
MEASURED TARGET: anti-HAV-positive sera
P/N for acute sera (mean): 7.47
//
BIOSEQUENCE: KTMIRFGDVGLDLDFSAFDA [YK-1418]
MEASURED TARGET: anti-HAV-positive sera
P/N for acute sera (mean): 4.5
//
BIOSEQUENCE: IKVIPVDPYFFQMTNTNPDQ [YK-1244]
MEASURED TARGET: anti-HAV-positive sera
P/N for acute sera (mean): 4.2
//
BIOSEQUENCE: NIGTGTSAYTSLNVLARFTD [YK-1224]
MEASURED TARGET: anti-HAV-positive sera
P/N for acute sera (mean): 3.53
//
BIOSEQUENCE: TTVSTEQNVPDPQVGITTMK [YK-1265]
MEASURED TARGET: anti-HAV-positive sera
P/N for acute sera (mean): 6.7
//
BIOSEQUENCE: SDPSQGGGIKITHFTTWTSI [YK-1235]
MEASURED TARGET: anti-HAV-positive sera
P/N for acute sera (mean): 4.2
//
BIOSEQUENCE: VKPASFFKNPHNDMLNVNLA [YK-1362]
MEASURED TARGET: anti-HAV-positive sera
P/N for acute sera (mean): 7.82
//
BIOSEQUENCE: AGDLESSVDDPRSEEDKRFE [YK-1313]
MEASURED TARGET: anti-HAV-positive sera
P/N for acute sera (mean): 15.79
//
BIOSEQUENCE: INNVNLYYVFSKIFGKSPVF [YK-1424]
MEASURED TARGET: anti-HAV-positive sera
P/N for acute sera (mean): 6.69
//
BIOSEQUENCE: QRLKYAQEELSNEVLPPPRK [YK-1317]
MEASURED TARGET: anti-HAV-positive sera
P/N for acute sera (mean): 19.35
//
BIOSEQUENCE: RMYWGPAISYFHLNPGFHTG [YK-1414]
MEASURED TARGET: anti-HAV-positive sera
P/N for acute sera (mean): 3.35
//
BIOSEQUENCE: HTYARFGIEIQVQINPTPFQ [YK-1216]
MEASURED TARGET: anti-HAV-positive sera
P/N for acute sera (mean): 5.3
//
BIOSEQUENCE: QFPFNASDSVGQQIKVIPVD [YK-1241]
MEASURED TARGET: anti-HAV-positive sera
P/N for acute sera (mean): 3.56
//
BIOSEQUENCE: SHIECRKPYKELRLEVGKQR [YK-1315]
MEASURED TARGET: anti-HAV-positive sera
P/N for acute sera (mean): 13.71
//
BIOSEQUENCE: SLIAWQRSNAEFEQNLENAQ [YK-1435]
MEASURED TARGET: anti-HAV-positive sera
P/N for acute sera (mean): 8.96
//
BIOSEQUENCE: CPKDELRPLEKVLESKTRAI [YK-1411]
MEASURED TARGET: anti-HAV-positive sera
P/N for acute sera (mean): 8.18
//
BIOSEQUENCE: NILKDNQQKIEKAIEEADEF [YK-1341]
MEASURED TARGET: anti-HAV-positive sera
P/N for acute sera (mean): 5.23
//
BIOSEQUENCE: VSGCPMRLNMASLEEKGRHF [YK-1356]
MEASURED TARGET: anti-HAV-positive sera
P/N for acute sera (mean): 5.49
//
BIOSEQUENCE: PYKELRLEVGKQRLKYAQEE [YK-1316]
MEASURED TARGET: anti-HAV-positive sera
P/N for acute sera (mean): 8.71
//
BIOSEQUENCE: LAKTNDAIKDMSCVDLIMDG [YK-1364]
MEASURED TARGET: anti-HAV-positive sera
P/N for acute sera (mean): 4.9
//
BIOSEQUENCE: EVGSHQVEPLRTSVDKPGSK [YK-1210]
MEASURED TARGET: anti-HAV-positive sera
P/N for acute sera (mean): 7.31
//
BIOSEQUENCE: SQGISDDDNDSAVAEFFQSF [YK-1368]
MEASURED TARGET: anti-HAV-positive sera
P/N for acute sera (mean): 9.58
//
BIOSEQUENCE: TPVGLAVDTPWVEKESALSI [YK-1290]
MEASURED TARGET: anti-HAV-positive sera
P/N for acute sera (mean): 4.48
//
BIOSEQUENCE: FQSFPSGEPSNSKLSGFFQS [YK-1370]
MEASURED TARGET: anti-HAV-positive sera
P/N for acute sera (mean): 8.05
//
BIOSEQUENCE: KCITALASICQMFCFWRGDL [YK-1247]
MEASURED TARGET: anti-HAV-positive sera
P/N for acute sera (mean): 3.96
//
BIOSEQUENCE: HFKDPQYPVWELTIRVWSEL [YK-1222]
MEASURED TARGET: anti-HAV-positive sera
P/N for acute sera (mean): 4.29
//
BIOSEQUENCE: RCEPVVCYLYGKRGGGKSLT [YK-1348]
MEASURED TARGET: anti-HAV-positive sera
P/N for acute sera (mean): 6.96
//
BIOSEQUENCE: NRGKMDVSGVQAPVGAITTI [YK-1268]
MEASURED TARGET: anti-HAV-positive sera
P/N for acute sera (mean): 9.1
//
BIOSEQUENCE: VMTVEIRKQNMTEFMELWSQ [YK-1367]
MEASURED TARGET: anti-HAV-positive sera
P/N for acute sera (mean): 7.82
//
BIOSEQUENCE: DLEEIAANSKDFPNMSETDL [YK-1328]
MEASURED TARGET: anti-HAV-positive sera
P/N for acute sera (mean): 4.76
//
BIOSEQUENCE: SKTRAIDACPLDYSILCRMY [YK-1412]
MEASURED TARGET: anti-HAV-positive sera
P/N for acute sera (mean): 6.04
//
BIOSEQUENCE: MEEKATYVHKKNDGTTVDLT [YK-1388]
MEASURED TARGET: anti-HAV-positive sera
P/N for acute sera (mean): 4.29
//
BIOSEQUENCE: NPSPKTVYVKEAIDRRLHFK [YK-1360]
MEASURED TARGET: anti-HAV-positive sera
P/N for acute sera (mean): 4.08
//
BIOSEQUENCE: GLVRKNLVQFGVGEKNGCVR [YK-1376]
MEASURED TARGET: anti-HAV-positive sera
P/N for acute sera (mean): 6.71
//
BIOSEQUENCE: GQKIVDEFKKLGMTATSADK [YK-1428]
MEASURED TARGET: anti-HAV-positive sera
P/N for acute sera (mean): 7.28
//
BIOSEQUENCE: DSAVAEFFQSFPSGEPSNSK [YK-1369]
MEASURED TARGET: anti-HAV-positive sera
P/N for acute sera (mean): 21.71
//
BIOSEQUENCE: VASHVRVNVYLSAINLECFA [YK-1261]
MEASURED TARGET: anti-HAV-positive sera
P/N for acute sera (mean): 5.27
//
BIOSEQUENCE: FPTKYHSGRLLFCFVPGNEL [YK-1250]
MEASURED TARGET: anti-HAV-positive sera
P/N for acute sera (mean): 5.68
//
BIOSEQUENCE: INPTPFQQGGLICAMVPGDQ [YK-1217]
MEASURED TARGET: anti-HAV-positive sera
P/N for acute sera (mean): 4.03
//
BIOSEQUENCE: SVTEQSEFYFPRAPLNSNAM [YK-1308]
MEASURED TARGET: anti-HAV-positive sera
P/N for acute sera (mean): 3.32
//
BIOSEQUENCE: LGMTATSADKNVPQLKPVSE [YK-1429]
MEASURED TARGET: anti-HAV-positive sera
P/N for acute sera (mean): 10.25
//
BIOSEQUENCE: FPELKPGESRHTSDHMSIYK [YK-1274]
MEASURED TARGET: anti-HAV-positive sera
P/N for acute sera (mean): 5.31
//
BIOSEQUENCE: LGSINQAMVTRCEPVVCYLY [YK-1347]
MEASURED TARGET: anti-HAV-positive sera
P/N for acute sera (mean): 4.16
//
BIOSEQUENCE: FDFQVFPTKYHSGRLLFCFV [YK-1249]
MEASURED TARGET: anti-HAV-positive sera
P/N for acute sera (mean): 5.03
//
BIOSEQUENCE: MSRIAAGDLESSVDDPRSEE [YK-1312]
MEASURED TARGET: anti-HAV-positive sera
P/N for acute sera (mean): 8.7
//
BIOSEQUENCE: EDPVLAKKVPETFPELKPGE [YK-1272]
MEASURED TARGET: anti-HAV-positive sera
P/N for acute sera (mean): 5.4
//
BIOSEQUENCE: DLDFSAFDASLSPFMIREAG [YK-1419]
MEASURED TARGET: anti-HAV-positive sera
P/N for acute sera (mean): 5.27
//
BIOSEQUENCE: FNASDSVGQQIKVIPVDPYF [YK-1242]
MEASURED TARGET: anti-HAV-positive sera
P/N for acute sera (mean): 3.1
//
BIOSEQUENCE: HGVTKPKQVIKLDADPVESQ [YK-1374]
MEASURED TARGET: anti-HAV-positive sera
P/N for acute sera (mean): 10.57
//
BIOSEQUENCE: GGIKITHFTTWTSIPTLAAQ [YK-1236]
MEASURED TARGET: anti-HAV-positive sera
P/N for acute sera (mean): 4.68
//
BIOSEQUENCE: KINLADRMLGLSGVQEIKEQ [YK-1331]
MEASURED TARGET: anti-HAV-positive sera
P/N for acute sera (mean): 5.71
//
BIOSEQUENCE: WQRSNAEFEQNLENAQWFAF [YK-1436]
MEASURED TARGET: anti-HAV-positive sera
P/N for acute sera (mean): 4.49
//
BIOSEQUENCE: VIQQLNQDEHSHIIGLLRVM [YK-1334]
MEASURED TARGET: anti-HAV-positive sera
P/N for acute sera (mean): 4.27
